- ASSAY_OVERVIEW: qHTS profiling for inhibitors of Plasmodium falciparum proliferation (AID 504749); also: nearly all actives have a fitted effect of over 60% in size;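 as to activity, negative = inhibition: 0% = DMSO vehicle and full inhibition = artemisinin control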
- TEST_CONTEXT: P. falciparum in erythrocytes, SYBR Green DNA, 72 h; at 28.7 µM (top of the series); parasite line B
Inconclusive results are not listed.
QUANTITY_NAME: activity, negative = inhibition (%)
Write it as a number; the unit % goes unstated.

Any idea what activity, negative = inhibition was measured for CN(C)CCOC(=O)[C@@H](c1ccccc1)C1(O)CCCC1 ?
8.77

// same read-out, input: COc1cc2nc(N3CCN(C(=O)[C@@H]4CCCO4)CC3)nc(N)c2cc1OC
8.54

What do you have for CC1(C)OC2CC(=O)OC[C@@]23C1CC(=O)[C@]1(C)C3CC[C@@]2(C)C(c3ccoc3)OC(=O)C3O[C@@]321 (stereo partly drawn) ?
13.3

// query: COc1cc2nc(N3CCN(C(=O)[C@@H]4COc5ccccc5O4)CC3)nc(N)c2cc1OC
-13.1

Same for CCCCCCCCCc1ccc(OCCOCCOCCOCCOCCOCCOCCOCCOCCO)cc1
-22.2

CCOC(=O)C1=CC(OC(CC)CC)C(NC(C)=O)C(N)C1 (stereo not drawn) ?
-0.576

And what about the compound CN1C(=O)C[C@H](c2ccccc2)C1=O ?
-2.97

And what about the compound C/C1=C2N=C(/C=C3N=C(/C(C)=C4\[N-]C(C)(C5N=C1C(C)(CCC(=O)NCC(C)OP(=O)([O-])O[C@H]1C(O)C(n6cnc7cc(C)c(C)cc76)O[C@@H]1CO)C5CC(N)=O)C(C)(CC(N)=O)C4CCC(N)=O)C(C)(CC(N)=O)C\3CCC(N)=O)C(C)(C)C/2CCC(N)=O.[CH2-]C1OC(n2cnc3c(N)ncnc32)C(O)C1O.[Co] (stereo partly drawn) ?
4.58

###

- TEST_TARGET: Rap guanine nucleotide exchange factor 3 (Homo sapiens) (UniProt O95398)
- Sequence (O95398 whole entry, looked up): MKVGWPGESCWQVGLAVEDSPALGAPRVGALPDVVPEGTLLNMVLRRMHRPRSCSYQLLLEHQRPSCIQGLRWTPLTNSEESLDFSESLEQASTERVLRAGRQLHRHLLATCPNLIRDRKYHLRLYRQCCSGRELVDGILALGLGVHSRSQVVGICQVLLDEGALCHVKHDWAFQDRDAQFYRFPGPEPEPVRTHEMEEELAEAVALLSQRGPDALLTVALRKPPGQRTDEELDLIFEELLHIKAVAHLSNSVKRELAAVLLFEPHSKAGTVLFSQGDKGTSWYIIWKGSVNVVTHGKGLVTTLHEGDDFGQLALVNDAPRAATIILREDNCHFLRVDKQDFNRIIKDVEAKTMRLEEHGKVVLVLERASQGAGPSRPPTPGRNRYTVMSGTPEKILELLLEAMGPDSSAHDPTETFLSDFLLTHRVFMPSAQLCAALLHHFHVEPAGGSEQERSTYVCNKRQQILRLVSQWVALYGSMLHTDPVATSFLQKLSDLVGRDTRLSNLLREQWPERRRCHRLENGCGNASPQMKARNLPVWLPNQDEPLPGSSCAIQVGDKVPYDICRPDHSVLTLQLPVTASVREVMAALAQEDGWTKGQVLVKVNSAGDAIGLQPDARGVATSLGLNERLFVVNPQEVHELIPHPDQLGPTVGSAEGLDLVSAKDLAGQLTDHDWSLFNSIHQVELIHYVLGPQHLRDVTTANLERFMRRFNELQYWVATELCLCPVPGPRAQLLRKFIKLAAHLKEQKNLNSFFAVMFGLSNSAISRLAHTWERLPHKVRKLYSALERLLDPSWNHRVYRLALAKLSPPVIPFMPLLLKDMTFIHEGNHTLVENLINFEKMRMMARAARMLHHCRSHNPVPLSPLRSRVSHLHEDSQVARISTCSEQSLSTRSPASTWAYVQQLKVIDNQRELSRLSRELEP
- ASSAY_OVERVIEW: Counterscreen qHTS for antagonist of cAMP-regulated guanine nucleotide exchange factor 3 (EPAC1) (AID 1645888);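 also: fluorescence loss as bound BODIPY-GDP is released from Rap1B; % of control where 0% means no effect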
- TEST_CONTEXT: Rap1B-BODIPY-GDP nucleotide exchange, fluorescence; series mostly up to 154 µM
Inconclusive results are not listed. Active and inactive are the calls of the source. The call rests on the fitted dose curve; in most records, active means well fitted inhibition curve with a large enough effect; inconclusive means small, poorly fitted or top-dose-only effect; inactive means no such curve, though single readings can be large or run the other way.
QUANTITY_NAME: activity change, negative = inhibition

Would you please look over these solved cases?
C[n+]1cc(C(=O)N2CCCCC2)ccc1/C=C/c1c[nH]c2ccccc12: -7.76% [at 30.8 µM] (inactive)
Cc1cccc(NC(=O)CN2C(=O)S/C(=C\c3ccc(O)c([N+](=O)[O-])c3)C2=O)c1: inactive
COc1ccc2nc(N3CCN(C(=O)C4CC4)CC3)sc2c1: inactive
COc1ccc(N2CCN(C(c3ccccc3F)c3sc4nc(-c5ccco5)nn4c3O)CC2)cc1 (stereo unspecified): inactive
COCC(=O)Oc1c(Sc2ccc(C)cc2)c(C)nn1C(C)(C)C: inactive

Recorded activity change, negative = inhibition for CC(C)Cc1csc(NC(=O)c2ccc(Cl)cc2)c1C(=O)O , please?
-11.2% [at 30.8 µM] (inactive)

###

- System: 3D7
- ASSAY_OVERVIEW: qHTS profiling for inhibitors of Plasmodium falciparum proliferation (AID 504749); also: nearly all actives have a fitted effect of over 60% in size
- TEST_CONTEXT: P. falciparum in erythrocytes, SYBR Green DNA, 72 h; series mostly up to 12.8 µM
Records with an inconclusive call do not appear. Active and inactive are the calls of the source. The call rests on the fitted dose curve; in most records, active means well fitted inhibition curve with a large enough effect; inconclusive means small, poorly fitted or top-dose-only effect; inactive means flat fitted curve, though single readings scatter.
Bench note: report the call from active, inactive

Outcome logged for CCN1CCC[C@@H](OC(=O)C(c2ccccc2)c2ccccc2)C1 in this assay:
inactive

Could you do the same for C[C@H](CCC(=O)O)[C@H]1CC[C@@H]2[C@@H]3[C@@H](O)C[C@H]4C[C@@H](O)CC[C@@]4(C)[C@H]3CC[C@@]21C , please?
inactive

Another: CCC[C@@H]1O[C@@H]2C[C@@H]3[C@H]4CCC5=CC(=O)C=C[C@@]5(C)[C@H]4[C@H](O)C[C@@]3(C)[C@@]2(C(=O)CO)O1
active

How about this molecule: C[C@]1(c2ccccc2)OC(C(=O)O)=CC1=O
inactive

Cool, now CC(C)(C)NC[C@H](O)COc1cccc2c1C[C@@H](O)[C@@H](O)C2
inactive

Next molecule: C=CCN1C(=CCO)[C@H]2C[C@H]3[C@@H]1CC[C@@]31c3ccccc3N3C=C4[C@@H]5N(/C=C/2[C@H]31)c1ccccc1[C@]51CC[C@H]2[C@H]1C[C@@H]4/C(=C/CO)N2CC=C
inactive

Consider next the molecule COc1cc2nc(N3CCN(C(=O)[C@@H]4CCCO4)CC3)nc(N)c2cc1OC in the same way.
inactive

What would you report for CCCCC[C@H](O)/C=C\[C@@H]1[C@H](O)CC(=O)[C@@H]1CCCCCCC(=O)O ?
inactive
